EXPERIMENTAL_TARGET: UniProtKB Q14145
Sequence (Q14145 whole entry): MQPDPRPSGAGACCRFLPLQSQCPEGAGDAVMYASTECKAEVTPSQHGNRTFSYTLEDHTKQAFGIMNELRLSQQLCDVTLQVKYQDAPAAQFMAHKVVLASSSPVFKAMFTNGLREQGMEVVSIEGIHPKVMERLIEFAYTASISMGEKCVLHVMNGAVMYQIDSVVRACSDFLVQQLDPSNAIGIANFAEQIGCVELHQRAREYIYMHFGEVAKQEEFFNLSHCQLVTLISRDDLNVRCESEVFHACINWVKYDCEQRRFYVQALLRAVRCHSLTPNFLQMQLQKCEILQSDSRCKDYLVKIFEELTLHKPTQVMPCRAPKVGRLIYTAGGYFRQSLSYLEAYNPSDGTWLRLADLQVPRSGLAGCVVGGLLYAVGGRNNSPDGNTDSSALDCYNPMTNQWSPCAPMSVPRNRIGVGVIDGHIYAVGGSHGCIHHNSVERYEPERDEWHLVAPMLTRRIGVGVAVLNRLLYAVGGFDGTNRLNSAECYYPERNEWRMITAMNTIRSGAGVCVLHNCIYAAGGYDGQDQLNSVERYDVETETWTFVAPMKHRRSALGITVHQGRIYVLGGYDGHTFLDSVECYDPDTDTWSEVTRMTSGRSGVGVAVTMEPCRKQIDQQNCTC
ASSAY_METHOD_TEXT: fluorescence polarization competition with labeled Nrf2 (ETGE) peptide, dose-response; supported by CETSA in LO2 lysate (ΔTm ca. […] °C)
ASSAY_SETUP: read-out: EC50 (the source's name)

- COMPOUND: "C=C(CC[C@@H](C(=O)O)[C@H]1CC[C@@]2(C)C3=CC[C@H]4C(C)(C)[C@@H](O)CC[C@]4(C)C3=CC[C@]12C)C(C)C [compound 1, Dehydroeburicoic acid]"
  EXPERIMENTAL_TARGET: "UniProtKB Q14145"
  IC50: "14.1 µM"

###

EXPERIMENTAL_TARGET: UniProt:P49841
Sequence (P49841 whole entry): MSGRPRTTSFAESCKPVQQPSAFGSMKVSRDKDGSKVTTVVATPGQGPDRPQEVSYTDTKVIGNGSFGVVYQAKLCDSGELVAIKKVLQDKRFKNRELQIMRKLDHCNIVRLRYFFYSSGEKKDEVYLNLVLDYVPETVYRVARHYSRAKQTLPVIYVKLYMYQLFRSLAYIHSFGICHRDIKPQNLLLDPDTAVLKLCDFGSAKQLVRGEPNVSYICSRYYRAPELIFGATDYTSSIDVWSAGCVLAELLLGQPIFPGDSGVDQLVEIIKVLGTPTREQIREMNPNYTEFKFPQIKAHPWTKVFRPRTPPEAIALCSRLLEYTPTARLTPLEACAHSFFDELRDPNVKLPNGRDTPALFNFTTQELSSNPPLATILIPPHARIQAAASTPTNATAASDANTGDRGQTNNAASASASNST
ASSAY_METHOD_TEXT: ADP-Glo luminescent kinase assay, dose-response; supported by CETSA in LO2 lysate (ΔTm ca. […] °C)
RECORDED_ENDPOINT: EC50 (µM)

- COMPOUND: "C=C(CC[C@@H](C(=O)O)[C@H]1CC[C@@]2(C)C3=CC[C@H]4C(C)(C)[C@@H](O)CC[C@]4(C)C3=CC[C@]12C)C(C)C [compound 1, Dehydroeburicoic acid]"
  OBSERVED_MEASUREMENT: 8
